Test system: HT-1080 (ATCC, CCL-121) cells
Test: HT-1080 cell viability assay with ferroptosis inducer RSL3 (Cell Titer-Glo)
Assay type: cell-based
Conditions: Homo sapiens; HT-1080 cells treated with RSL3; 3-fold, 10-point dilution, 1.1 μM highest concentration; Table 2; read-out: EC50 (nM), ferroptosis inhibitory activity
// values below are reported EC50

Known EC50 results, listed for orientation:
{"molecule": "O=C1c2ccc(Nc3ccc(N4CCC(C(F)(F)F)CC4)cc3)cc2CN1Cc1ccccc1", "result": "0.1 to 100 nM"}
{"molecule": "CC(C)(C)c1ccc(Nc2ccc3c(CCN)cc(=O)oc3c2)cc1", "result": "0.1 to 100 nM"}
{"molecule": "CC1CN(c2ccc(Nc3ccc4c(c3)OCC(=O)N4C)cc2)CCO1 (centres unmarked)", "result": "0.1 to 100 nM"}
{"molecule": "CN1Cc2cc(Nc3ccc(N4CCC(C(F)(F)F)CC4)cc3)cc(F)c2C1=O", "result": "0.1 to 100 nM"}

[in] What measured EC50 goes with CNCCCN1C(=O)COc2cc(Nc3ccc(N4CC(C)OC(C)C4)c(C)c3)ccc21 (centres unmarked) ?
[out] 0.1 to 100 nM

[in] What measured EC50 goes with CCC1Oc2cc(Nc3ccc(N4CC(C)OC(C)C4)cc3)ccc2N(C)C1=O (centres unmarked) ?
[out] 0.1 to 100 nM

[in] What measured EC50 goes with "COc1cc(Nc2ccc3c(c2)n(C)c(=O)n3C)cnc1N1CCC(C(F)(F)F)CC1" ?
[out] 0.1 to 100 nM

[in] What measured EC50 goes with "FC(F)(F)C1CCN(c2ccc(Nc3ccc4occc4c3)cc2)CC1" ?
[out] 0.1 to 100 nM
